# measured target: T1, cyno CD137-Fc (cynomolgus monkey; human, limits assumed, biotin-labeled)
# T1 construct: whole entry 92 named; also called biotin-labeled cynomolgus monkey CD137 fused to human IgG1 Fc fragment; not shown: human IgG1 Fc fragment
# T1 chain: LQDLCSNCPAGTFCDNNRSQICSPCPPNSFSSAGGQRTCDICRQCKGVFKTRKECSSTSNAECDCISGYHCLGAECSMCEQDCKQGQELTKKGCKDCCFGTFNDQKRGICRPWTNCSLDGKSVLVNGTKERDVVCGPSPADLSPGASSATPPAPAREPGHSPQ
# run description: bead ELISA, IgG on biotinylated antigen, luminescence;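 further: biotinylated antigen captured on streptavidin magnetic beads, then incubated with purified IgG at 50 ng/µL for 1 h at room temperature before detection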
Catalogue of S/N ratio (cyno CD137-Fc/Fc) readings, one per entry.

| binder | S/N ratio (cyno CD137-Fc/Fc) |
| --- | --- |
| DXDU01_3#019 (antibody, V domains shown, Human IgG1; light chain GLS3000 (kappa); also called dBBDu125) VH: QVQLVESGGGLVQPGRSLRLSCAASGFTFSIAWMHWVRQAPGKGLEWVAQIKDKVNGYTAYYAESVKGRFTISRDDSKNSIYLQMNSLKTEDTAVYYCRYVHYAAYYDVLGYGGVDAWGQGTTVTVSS VL: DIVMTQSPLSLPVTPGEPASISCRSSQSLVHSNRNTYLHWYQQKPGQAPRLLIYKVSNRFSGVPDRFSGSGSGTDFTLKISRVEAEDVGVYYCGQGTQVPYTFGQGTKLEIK | 1.56 |
| DXDU01_3#072 (antibody, V domains shown, Human IgG1; light chain GLS3000 (kappa); also called dBBDu122) VH: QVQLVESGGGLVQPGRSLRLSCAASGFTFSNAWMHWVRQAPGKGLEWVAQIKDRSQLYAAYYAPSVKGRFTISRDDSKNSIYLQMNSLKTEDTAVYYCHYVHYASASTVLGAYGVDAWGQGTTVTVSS VL: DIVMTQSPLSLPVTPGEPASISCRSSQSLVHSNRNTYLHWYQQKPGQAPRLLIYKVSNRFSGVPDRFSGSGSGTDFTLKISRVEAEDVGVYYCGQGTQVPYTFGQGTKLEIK | 1.56 |
| DADU01_3#001 (antibody, V domains shown, Human IgG1; light chain GLS3000 (kappa); also called dBBDu126; dBBDu_126) VH: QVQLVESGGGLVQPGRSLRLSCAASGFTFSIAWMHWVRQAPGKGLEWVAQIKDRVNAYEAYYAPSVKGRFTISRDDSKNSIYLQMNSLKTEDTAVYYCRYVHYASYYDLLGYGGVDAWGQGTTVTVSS VL: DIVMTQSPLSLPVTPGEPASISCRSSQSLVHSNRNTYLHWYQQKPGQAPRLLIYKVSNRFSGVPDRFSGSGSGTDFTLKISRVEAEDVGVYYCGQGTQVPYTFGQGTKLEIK | 0.687 |
